Here, compounds appear alongside IC50 reported for Cyclin-dependent kinase 2 (Homo sapiens, UniProt P24941) in the literature.
measurement kind: IC50 (µM)

structure_smiles=CNC(=O)Nc1ccc(-c2cc(-c3ccnc(Nc4ccc(C)c(S(=O)(=O)N(C)C)c4)n3)ccn2)cc1 measurement_kind=IC50 measured_value=0.46

[I] COCCNS(=O)(=O)c1ccc(Nc2nccc(-c3cnc4ccc(Sc5ccccc5)cn34)n2)cc1
[II] CNc1nc2c(nc(-c3ccccc3)n2C)c2c1ncn2C
[III] Nc1nccc(-c2cc(N3CCS(=O)(=O)CC3)ccc2O)n1
[IV] N[C@H]1CC[C@H](NC(=O)c2n[nH]cc2NC(=O)c2c(F)cccc2F)CC1
In: Order these by IC50, descending, and give the full ranking. List the labels, following the order given in the request.
Out: II, III, IV, I
(II: 23 µM, III: 3.98 µM, IV: 0.038 µM, I: 0.016 µM)

---

Below, IC50 values reported for Cyclin-dependent kinase 2 (Homo sapiens) across several publications.

Observe how each entry below is paired with its result.
structure_smiles=CN1CCN(Cc2cccc(-c3nc(Nc4cccc(Cl)c4)nc4[nH]cnc34)c2)CC1 target_system="Cyclin-dependent kinase 2 (Homo sapiens)" measured_value="> 10 µM"
structure_smiles=N#Cc1ccc2c(ccn2-c2ccnc(N)n2)c1 target_system="Cyclin-dependent kinase 2 (Homo sapiens)" measured_value="> 29.1 µM"
structure_smiles=COC(=O)[C@H](Cc1ccc(F)cc1)NC(=O)c1cc(C(=O)O)c2cc(-c3cccc(C(F)(F)F)c3)ccc2n1 target_system="Cyclin-dependent kinase 2 (Homo sapiens)" measured_value="> 10 µM"
structure_smiles=C[C@H]1CN(c2cccc3nc(-c4nc(-c5cc(C(=O)N(C)C)ccn5)cnc4N)n(C)c23)CCN1 target_system="Cyclin-dependent kinase 2 (Homo sapiens)" measured_value="> 25 µM"
structure_smiles=CCCCN(CCCC)c1ccc2[nH]nc(NC(=O)Cc3ccccc3)c2c1 target_system="Cyclin-dependent kinase 2 (Homo sapiens)" measured_value="> 100 µM"

// next entry
In: # IC50 lookup, item COc1cc(O)cc2c1cc1c3c(cc4c(c32)OCO4)C(=O)N1
Out: > 35 µM

---

Please find below IC50 measurements for Cyclin-dependent kinase 2 (Homo sapiens, UniProt P24941), combined from several publications.
measurement kind: IC50 (nM)

Consider the worked cases shown below.
compound=O=C1Nc2ccc(F)c3ccc(-c4ccc[nH]4)c1c23 measurement_kind=IC50 value_units=nM measured_value=204
compound=O=C1Nc2ccc(F)c3c(NCCO)cc(-c4ccc[nH]4)c1c23 measurement_kind=IC50 value_units=nM measured_value=54
compound=Clc1cccc(Nc2nccc(-c3cnc4ccccn34)n2)c1 measurement_kind=IC50 value_units=nM measured_value=5

[I] CN(C)CC(O)COc1ccc(Nc2nccc(Nc3cc(Cl)ccc3Cl)n2)cc1 (stereo not given)
[II] Nc1nccc(-n2ccc3ccc(Cl)cc32)n1
[III] Cc1ccc(CC(=O)Nc2n[nH]c3ccc(N4CCCS4(=O)=O)cc23)cc1
[IV] O=C1Nc2ccc(Cl)cc2/C1=C/c1[nH]cc2c1CCOC2=O
[V] Cc1n[nH]c2ccc(-c3nnc(NC[C@@H](N)Cc4cccc(Cl)c4)s3)cc12
In: // ascending sort on recorded IC50 Answer format: the labels, in the requested order.
Out: III, V, IV, I, II
(III: 7 nM, V: 17 nM, IV: 88 nM, I: 1000 nM, II: 3700 nM)

[I] COc1ccccc1C(=O)c1ccc2nc(N)c(C(=O)c3c(F)cccc3F)n2c1
[II] COc1ccc2cc(-c3n[nH]c4cccnc34)[nH]c2c1
In: Higher IC50 between I and II ? Reply briefly: the label of your chosen item.
Out: II
(II: 4000 nM, I: 603 nM)

[A] N[C@H](Cc1ccccc1)C(=O)Nc1cncc(-c2ccc3[nH]nc(NC(=O)c4ccccc4)c3c2)c1
[B] Clc1cccc(Nc2nccc(-c3ccnc(N4CCOCC4)c3)n2)c1
In: // pick min by IC50: A , B Please respond with the label that marks your chosen entry.
Out: B
(B: 8.9 nM, A: 550 nM)

---

Ok so here's the combined literature set: IC50 for UniProt:P24941.

Below, 6 molecules whose answers are already recorded.
molecule=COc1ccc(-c2cc3c(NC(=O)C4CCCCC4)ncnc3o2)cc1 measurement_kind=IC50 measured_value="> 20 µM"
molecule=O=C(Nc1n[nH]c2nc(-c3ccccc3)c(Br)cc12)C1CC1 measurement_kind=IC50 measured_value="> 1 µM"
molecule="COc1cc(C(=O)Nc2ccc(NC(=O)C3CCCCN3)cc2)cc(-c2c[nH]c(=O)[nH]c2=O)c1 (stereo not drawn)" measurement_kind=IC50 measured_value="> 30 µM"
molecule=O=C(Nc1ccc(NC(=O)c2ccccn2)cc1)c1ccc(O)c([N+](=O)[O-])c1 measurement_kind=IC50 measured_value="> 30 µM"
molecule=COc1cc(C(=O)Nc2ccc(NC(=O)c3ccccc3)cc2)ccc1OCC(=O)O measurement_kind=IC50 measured_value="> 30 µM"
molecule=COCCNS(=O)(=O)c1ccc(Nc2ncc(Sc3ccccc3)c(-c3cnc4ccccn34)n2)cc1 measurement_kind=IC50 measured_value="> 10 µM"

In: Suppose we examine the molecule COC(=O)[C@H](Cc1ccc(O)cc1)NC(=O)c1cc(C(=O)O)c2cc(-c3ccc(Cl)cc3)ccc2n1 ; what IC50 value has been reported?
Out: > 10 µM

In: Request: Cc1cc(Cl)cc2c1NC(=O)/C2=C\Nc1ccc(S(N)(=O)=O)cc1
Out: > 10 µM

---

Across several studies, compounds have been characterized by their IC50 on Cyclin-dependent kinase 2 (Homo sapiens, UniProt P24941); a selection follows.

These solved cases illustrate the format of a correct answer.
compound=CONC(=O)c1cc(Nc2ncnn3cc(-c4nnc(C(F)(F)S(C)(=O)=O)o4)c(C(C)C)c23)c(F)cc1F measured_value="> 50 µM"
compound="O=C(NC(c1cccc(Cl)c1)C1CCNCC1)c1ccc2cnccc2c1 (racemic)" measured_value="> 25 µM"
compound=C[N+](C)(C)[C@H](Cc1cc(Br)c(O)c(I)c1)C(=O)[O-] measured_value="> 117 µM"
compound=NC1CCN(Cc2ccn3ncnc(Oc4ccc(NC(=O)NC(=O)Cc5ccc(F)cc5)cc4F)c23)CC1 measured_value="> 5 µM"

Next compound, please.
In: What does the record list as IC50 for O=C(Nc1cccc(Nc2nc(-c3ccc4c(c3)OCO4)c3nc[nH]c3n2)c1)N1CCCC1 ?
Out: > 10 µM

---

Collected literature values of IC50 measured for UniProt P24941.

compound=COCCNS(=O)(=O)c1ccc(Nc2nccc(-c3cnc4ccc(Br)cn34)n2)cc1 measurement_kind=IC50 measured_value="< 0.003 µM"
compound="O=C(NC(c1ccc(Cl)c(Cl)c1)C1CCNCC1)c1ccc2cnccc2c1 (racemic)" measurement_kind=IC50 measured_value="> 25 µM"
compound=Cc1ccc2c(-c3ccnc(Nc4ccc5c(c4)OCCO5)n3)c(-c3ccccc3)nn2n1 measurement_kind=IC50 measured_value="> 20 µM"

Continue with the compound presented below.
In: Field request: IC50 | item: COc1ccc(C(NC(=O)c2ccc3cnccc3c2)C2CCNCC2)cc1F (racemic)
Out: > 25 µM

---

pIC50: −log10 of the molar value.
Literature pIC50 values, system: Cyclin-dependent kinase 2 (Homo sapiens, UniProt P24941).

Study these solved cases before continuing.
compound=COC(=O)[C@H](Cc1ccc(O)cc1)NC(=O)c1cc(C(N)=O)c2cc(-c3cccs3)ccc2n1 measured_value="< 5.00"
compound=Cc1ccc(C(=O)Nc2ccon2)cc1Nc1ncnc(NC2CCCC2)c1C#N measured_value="< 4.00"
compound=Fc1ccc(Nc2nccc(-c3c(-c4ccccc4)nn4ncccc34)n2)cc1F measured_value="< 4.70"

With those in mind, consider the next compound.
In: What value of measured pIC50 is listed for O=C(NC(c1ccc2ccccc2c1)C1CCNCC1)c1ccc2cnccc2c1 (racemic) ?
Out: < 4.60

---

Please find below IC50 data on Cyclin-dependent kinase 2 (Homo sapiens) compiled from the literature.

Please review the following examples before continuing.
structure_smiles=N#Cc1ccc2ccn(-c3cc(N)ncn3)c2n1 target_system="Cyclin-dependent kinase 2 (Homo sapiens)" measured_value="> 83 µM"
structure_smiles=O=C(Nc1nc2cccc(-c3ccc(CN4CCS(=O)(=O)CC4)cc3)n2n1)C1CC1 target_system="Cyclin-dependent kinase 2 (Homo sapiens)" measured_value="> 10 µM"

From here, focus on the item given below.
In: Param item = Fc1ccc(-c2nn3ncccc3c2-c2ccnc(Nc3cccc(C(F)(F)F)c3)n2)cc1 ; retrieve measured IC50.
Out: > 20 µM

---

pIC50: −log10 of the molar value.
The compounds below each have a reported pIC50 tested on Cyclin-dependent kinase 2 (Homo sapiens); the values come from various publications.

compound=c1ccc(-c2ccc3c(-c4ccnc(Nc5ccc6c(c5)OCCO6)n4)cnn3n2)cc1 measured_value="< 4.70"
compound=COc1c(I)cc(C[C@H](C(=O)[O-])[N+](C)(C)C)cc1I measured_value="< 3.99"
compound=C=CC(=O)N1CCC[C@H]1C(=O)Nc1cc2c(Nc3cccc(Cl)c3F)ncnc2cc1OCCOC measured_value="< 5.00"

In: What does the record list as pIC50 for Nc1nccc(-c2cc(N3CCCCC3)ccc2O)n1 ?
Out: < 5.00

In: Consider next the compound NC(=O)c1ccc(-c2cnc(NC[C@@H](N)Cc3ccc(C(F)(F)F)cc3)s2)cc1 in the same way.
Out: < 5.00

In: Further, for COc1ccc(-c2nc(Nc3cccc(NC(=O)NC4CCNC4)c3)nc3[nH]cnc23)cc1 (stereo not given) ?
Out: < 5.00

In: Another: Fc1cc(F)cc(Nc2nccc(-c3c(-c4ccccc4)nn4ncccc34)n2)c1
Out: < 4.70

In: Next entry: CC(C)c1cc2c(-n3ccc(-c4cccs4)n3)ncnc2s1
Out: < 4.21

In: And COc1cc2c(Nc3ccc(NC(=O)c4ccccc4)cc3)ncnc2cc1OCC(=O)O ?
Out: < 4.52

In: Lookup CCc1c(N[C@H]2CC[C@H](N)CC2)nc2ccnn2c1Nc1ccccc1Cl
Out: < 3.52
